Provide the reported IC50 of each item.
target: Gag-Pol polyprotein [588-1027] (Human immunodeficiency virus type 1 group M subtype B (isolate HXB2)); construct: 588-1027; assay: Reverse Transcriptase Assay; conditions: pH 7.4; 37 °C

Fill blank: measured IC50 of the compound "CC(C)(C)c1ccc(-c2c[nH]nc2OCC(=O)Nc2ccc(-c3ccc(CC(=O)O)cc3)cc2Cl)c(Cl)c1" is ____.
> 3300 nM

Fill blank: measured IC50 of the compound "Cc1ccc(-n2ncc(C)c2SCC(=O)Nc2ccc(-c3ccc(CC(=O)O)cc3)cc2Cl)c(Cl)c1" is ____.
> 10000 nM

Fill blank: measured IC50 of the compound "Cc1ccc(-n2nnnc2SCC(=O)Nc2ccc(-c3ccc(CC(=O)O)cc3)cc2Cl)c(Cl)c1" is ____.
2.4 nM

Fill blank: measured IC50 of the compound "Cc1ccc(-n2cc(C)nc2SCC(=O)Nc2ccccc2Cl)c(Cl)c1" is ____.
> 1000 nM

Fill blank: measured IC50 of the compound "Cc1ccc(-c2c(SCC(=O)Nc3ccc(-c4ccc(OCC(=O)O)cc4)cc3Cl)ccn2C)c(Cl)c1" is ____.
> 1000 nM

Fill blank: measured IC50 of the compound "Cc1[nH]nc(OCC(=O)Nc2ccc(C#CC(C)(C)CO)cc2Cl)c1-c1ccc(C(C)(C)C)cc1Cl" is ____.
> 3300 nM
